We begin with a simple list: items and their reported MIC50.
# Test system: colistin-resistant P. aeruginosa isolated from cystic fibrosis patients
# condition parameters: colistin-resistant isolated from cystic fibrosis patients
Peptide text beside a SMILES is read from it.
measure: MIC50 (µM)

* CC[C@@H](C)[C@@H](NC(=O)[C@@H](CCCNC(=N)N)NC(=O)[C@@H](CCCNC(=N)N)NC(=O)[C@@H](CC(C)C)NC(=O)[C@@H](Cc1c[nH]c2ccccc12)NC(=O)[C@@H](C)NC(=O)[C@@H](CCCCN)NC(=O)[C@H](NC(=O)[C@@H](CCCNC(=N)N)NC(=O)[C@@H](CCCNC(=N)N)NC(=O)[C@@H](CC(C)C)NC(=O)[C@H](N)Cc1c[nH]c2ccccc12)[C@H](C)CC)C(=O)N[C@H](CCCCN)C(=O)N[C@H](C)C(N)=O | 4
* CC[C@H](C)[C@H](NC(=O)[C@H](CCCNC(=N)N)NC(=O)[C@H](CCCNC(=N)N)NC(=O)[C@H](CC(C)C)NC(=O)[C@H](Cc1c[nH]c2ccccc12)NC(=O)[C@H](C)NC(=O)[C@H](CCCCN)NC(=O)[C@@H](NC(=O)[C@H](CCCNC(=N)N)NC(=O)[C@H](CCCNC(=N)N)NC(=O)[C@H](CC(C)C)NC(=O)[C@@H](N)Cc1c[nH]c2ccccc12)[C@@H](C)CC)C(=O)N[C@@H](CCCCN)C(=O)N[C@@H](C)C(=O)O | 8
* CC[C@H](C)[C@H](NC(=O)[C@H](CCCNC(=N)N)NC(=O)[C@H](CCCNC(=N)N)NC(=O)[C@H](CC(C)C)NC(=O)[C@@H](N)Cc1c[nH]c2ccccc12)C(=O)N[C@@H](CCCCN)C(=O)N[C@@H](C)C(=O)N[C@@H](Cc1c[nH]c2ccccc12)C(=O)N[C@@H](CC(C)C)C(=O)N[C@@H](CCCNC(=N)N)C(=O)N[C@@H](CCCNC(=N)N)C(=O)N[C@@H](CCCCN)C(=O)N[C@@H](CCCNC(=N)N)C(=O)N[C@@H](CCCCN)C(=O)O [RR3] (H-WLRRIKAWLRRKRK-OH; N-terminus and C-terminus assumed) | 16
